These entries and their values trace back to patent US20260184727A1.

# protocol: PK properties of Form 1E in male dogs under fasted and fed conditions
# Format: in vivo
# test conditions: male, dog, plasma, po, 50 mg/kg, pH 7, male dogs, Study B, Vehicle 2 (water/MSA pH7.0), Fed (high fat)
reported endpoint: AUC(0-t) (µM·h)
Express it in µM·h; write the number only.

*Q* Requested field: AUC(0-t). Item: O=C1OCCCc2c(Cl)cc3[nH]ncc3c2-c2ncc3c(nc(OC[C@@]45CCCN4C[C@H](F)C5)nc3c2F)N2CCOC[C@H](C2)O1 [Form 1E]
*A* 3.89

###

# protocol: Comparative solubilities of Form 1 and Form 1E in biorelevant media
# Assay type: physicochemical
# test conditions: water; H2O, pH 8.73; read-out: Solubility Conc
reported endpoint: solubility (µg/mL)
Express it in µg/mL; write the number only.

*Q* Requested field: solubility. Item: O=C1OCCCc2c(Cl)cc3[nH]ncc3c2-c2ncc3c(nc(OC[C@@]45CCCN4C[C@H](F)C5)nc3c2F)N2CCOC[C@H](C2)O1 [Form 1]
*A* 0.3

###

# protocol: PK properties of Form 1E in male dogs under fasted and fed conditions
# Format: in vivo
# test conditions: male, dog, plasma, po, 50 mg/kg, pH 7, male dogs, Study B, Vehicle 2 (water/MSA pH7.0), Fed (high fat)
reported endpoint: AUC(0-inf) (µM·h)
Express it in µM·h; write the number only.

*Q* Requested field: AUC(0-inf). Item: O=C1OCCCc2c(Cl)cc3[nH]ncc3c2-c2ncc3c(nc(OC[C@@]45CCCN4C[C@H](F)C5)nc3c2F)N2CCOC[C@H](C2)O1 [Form 1E]
*A* 3.91

###

# protocol: PK properties of Form 1E in male dogs under fasted and fed conditions
# Assay type: in vivo
# test conditions: male, dog, plasma, po, 50 mg/kg, pH 7, male dogs, Study B, Vehicle 2 (water/MSA pH7.0), Fasted
reported endpoint: Tmax (min)
Express it in min; write the number only.

*Q* Requested field: Tmax. Item: O=C1OCCCc2c(Cl)cc3[nH]ncc3c2-c2ncc3c(nc(OC[C@@]45CCCN4C[C@H](F)C5)nc3c2F)N2CCOC[C@H](C2)O1 [Form 1E]
*A* 54

###

# protocol: PK properties of Form 1E in male dogs under fasted and fed conditions
# Assay type: in vivo
# test conditions: male, dog, plasma, po, 50 mg/kg, pH 7, male dogs, Study B, 50.0 mg/kg, Vehicle 2 (water/MSA pH7.0), Fed (high fat); read-out: t1/2, z (converted)
reported endpoint: half-life
Number first, unit second: that is the form wanted.

*Q* Requested field: half-life. Item: O=C1OCCCc2c(Cl)cc3[nH]ncc3c2-c2ncc3c(nc(OC[C@@]45CCCN4C[C@H](F)C5)nc3c2F)N2CCOC[C@H](C2)O1 [Form 1E]
*A* 4.83 h

###

# protocol: PK properties of Form 1E in male dogs under fasted and fed conditions
# Assay type: in vivo
# test conditions: male, dog, plasma, po, 30 mg/kg, pH 2, male dogs, Study A, 30.0 mg/kg p.o., Vehicle 1 (water/malonic acid pH 2.0), Fed (kibble)
reported endpoint: Cmax

*Q* Requested field: Cmax. Item: O=C1OCCCc2c(Cl)cc3[nH]ncc3c2-c2ncc3c(nc(OC[C@@]45CCCN4C[C@H](F)C5)nc3c2F)N2CCOC[C@H](C2)O1 [Form 1E]
*A* 4.29 µM

###

# protocol: PK properties of Form 1E in male dogs under fasted and fed conditions
# Type: in vivo
# test conditions: male, dog, plasma, po, 30 mg/kg, pH 2, male dogs, Study A, 30.0 mg/kg p.o., Vehicle 1 (water/malonic acid pH 2.0), Fed (kibble)
reported endpoint: MRT (h)
Express it in h; write the number only.

*Q* Requested field: MRT. Item: O=C1OCCCc2c(Cl)cc3[nH]ncc3c2-c2ncc3c(nc(OC[C@@]45CCCN4C[C@H](F)C5)nc3c2F)N2CCOC[C@H](C2)O1 [Form 1E]
*A* 4.14

###

# protocol: PK properties of Form 1E in male dogs under fasted and fed conditions
# Format: in vivo
# test conditions: male, dog, plasma, po, 50 mg/kg, pH 7, male dogs, Study B, Vehicle 2 (water/MSA pH7.0), Fed (high fat)
reported endpoint: MRT (h)
Express it in h; write the number only.

*Q* Requested field: MRT. Item: O=C1OCCCc2c(Cl)cc3[nH]ncc3c2-c2ncc3c(nc(OC[C@@]45CCCN4C[C@H](F)C5)nc3c2F)N2CCOC[C@H](C2)O1 [Form 1E]
*A* 4.26

###

# protocol: PK properties of Form 1E in male dogs under fasted and fed conditions
# Assay type: in vivo
# test conditions: male, dog, plasma, po, 50 mg/kg, pH 7, male dogs, Study B, Vehicle 2 (water/MSA pH7.0), Fed (high fat)
reported endpoint: CL/F (mL/min/kg)
Express it in mL/min/kg; write the number only.

*Q* Requested field: CL/F. Item: O=C1OCCCc2c(Cl)cc3[nH]ncc3c2-c2ncc3c(nc(OC[C@@]45CCCN4C[C@H](F)C5)nc3c2F)N2CCOC[C@H](C2)O1 [Form 1E]
*A* 1160

###

# protocol: PK properties of Form 1E in male dogs under fasted and fed conditions
# Format: in vivo
# test conditions: male, dog, plasma, po, 50 mg/kg, pH 7, male dogs, Study B, Vehicle 2 (water/MSA pH7.0), Fasted
reported endpoint: AUC(0-inf) (µM·h)
Express it in µM·h; write the number only.

*Q* Requested field: AUC(0-inf). Item: O=C1OCCCc2c(Cl)cc3[nH]ncc3c2-c2ncc3c(nc(OC[C@@]45CCCN4C[C@H](F)C5)nc3c2F)N2CCOC[C@H](C2)O1 [Form 1E]
*A* 3.54

###

# protocol: PK properties of Form 1E in male dogs under fasted and fed conditions
# Format: in vivo
# test conditions: male, dog, plasma, po, 30 mg/kg, pH 2, male dogs, Study A, 30.0 mg/kg p.o., Vehicle 1 (water/malonic acid pH 2.0), Fed (kibble)
reported endpoint: AUC(0-t) (µM·h)
Express it in µM·h; write the number only.

*Q* Requested field: AUC(0-t). Item: O=C1OCCCc2c(Cl)cc3[nH]ncc3c2-c2ncc3c(nc(OC[C@@]45CCCN4C[C@H](F)C5)nc3c2F)N2CCOC[C@H](C2)O1 [Form 1E]
*A* 17

###

# protocol: Comparative solubilities of Form 1 and Form 1E in biorelevant media
# Assay type: physicochemical
# test conditions: FeSSIF, pH 4.58, fessif; read-out: Solubility Conc
reported endpoint: solubility (µg/mL)
Express it in µg/mL; write the number only.

*Q* Requested field: solubility. Item: O=C1OCCCc2c(Cl)cc3[nH]ncc3c2-c2ncc3c(nc(OC[C@@]45CCCN4C[C@H](F)C5)nc3c2F)N2CCOC[C@H](C2)O1 [Form 1E]
*A* 2500
